Assay: In vivo pharmacokinetics
Set-up: species or system mouse
Details: male, ICR, mouse, plasma; PO 10 mg/kg vs IV 5 mg/kg, mice; read-out: F (oral bioavailability)
testReadout: bioavailability (%)
The figure you give is taken to be in %; do not add the unit.

Inquiry: Request the reported bioavailability associated with O=C(Nc1cc(C(F)(F)F)cc(C(F)(F)F)c1)c1cc2cc(F)ccc2[nH]1 [Compound A3373]
Reply text: 108

====

Biological target: hERG K^+ channel (Homo sapiens, UniProt Q12809)
Construct: expressed in transfected cells; host or cells: HEK293
Sequence (Q12809 whole entry): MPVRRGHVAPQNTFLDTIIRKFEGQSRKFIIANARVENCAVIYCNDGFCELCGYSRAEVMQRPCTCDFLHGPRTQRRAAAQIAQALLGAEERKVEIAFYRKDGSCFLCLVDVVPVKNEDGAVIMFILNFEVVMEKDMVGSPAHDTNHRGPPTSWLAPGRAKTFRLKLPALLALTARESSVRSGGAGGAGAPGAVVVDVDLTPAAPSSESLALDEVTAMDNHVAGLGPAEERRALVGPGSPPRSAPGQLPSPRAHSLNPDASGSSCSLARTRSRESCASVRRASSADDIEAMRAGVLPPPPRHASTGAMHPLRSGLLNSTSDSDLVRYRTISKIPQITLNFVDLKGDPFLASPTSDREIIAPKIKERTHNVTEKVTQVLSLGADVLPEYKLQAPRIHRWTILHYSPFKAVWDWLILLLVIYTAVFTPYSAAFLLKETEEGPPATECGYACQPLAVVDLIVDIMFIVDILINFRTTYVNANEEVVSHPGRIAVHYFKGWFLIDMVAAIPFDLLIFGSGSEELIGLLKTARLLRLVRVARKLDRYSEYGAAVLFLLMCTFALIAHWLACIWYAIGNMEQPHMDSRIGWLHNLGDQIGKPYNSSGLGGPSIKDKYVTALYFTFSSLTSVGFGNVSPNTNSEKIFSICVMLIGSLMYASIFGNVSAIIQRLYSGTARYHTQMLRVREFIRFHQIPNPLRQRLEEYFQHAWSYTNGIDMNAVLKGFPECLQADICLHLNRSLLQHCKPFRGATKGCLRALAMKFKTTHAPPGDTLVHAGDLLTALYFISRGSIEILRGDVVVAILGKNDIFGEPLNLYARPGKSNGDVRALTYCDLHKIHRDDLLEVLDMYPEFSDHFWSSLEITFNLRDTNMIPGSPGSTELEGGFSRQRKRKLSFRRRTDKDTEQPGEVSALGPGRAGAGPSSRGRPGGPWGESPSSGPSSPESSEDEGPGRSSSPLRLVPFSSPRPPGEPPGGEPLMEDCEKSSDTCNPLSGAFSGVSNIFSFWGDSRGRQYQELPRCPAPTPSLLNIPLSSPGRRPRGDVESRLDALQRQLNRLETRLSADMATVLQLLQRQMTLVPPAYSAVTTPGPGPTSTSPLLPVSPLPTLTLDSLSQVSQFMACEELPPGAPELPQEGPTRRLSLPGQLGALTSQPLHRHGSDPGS
Test: hERG patch-clamp assay in HEK293 cells transfected with hERG
Format: cell-based
testReadout: IC50

Inquiry: Return IC50 measured with hERG K^+ channel (Homo sapiens, UniProt Q12809) given this molecule: `O=C(Nc1cc(C(F)(F)F)cc(C(F)(F)F)c1)c1cc2cc(F)ccc2[nH]1`
Reply text: > 50 µM
